# test.method.notes: growth inhibition, single agents and combos, ICB984, cell-based, cisplatin or BGB combos, synergistic combos for chromothripsis tumors (AID 1671451);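 note: cells exposed for 96 hours before readout; 0% = vehicle DMSO and 100% = killing by high DMSO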
# condition.label: ICB984 medulloblastoma cells, drug combinations, BGB IC20 combo, at 0.005 µM, stronger effect = higher value
The compounds listed here are annotated with their inhibition.
Return type: number; implicit unit %.

{"columns": ["compound", "unit.label", "inhibition"],
 "data": [
  ["Cc1ccnc2c1NC(=O)c1cccnc1N2C1CC1", "%", 7.31],
  ["Nc1nc(=S)c2[nH]cnc2[nH]1", "%", -12.4],
  ["CCN1CCN(c2cc3c(cc2F)c(=O)c(C(=O)O)cn3C2CC2)CC1", "%", -8.19],
  ["CCn1cc(C(=O)O)c(=O)c2cc3c(cc21)OCO3", "%", -17.2],
  ["Cc1nc2ccc(CN(C)c3ccc(C(=O)N[C@@H](CCC(=O)O)C(=O)O)s3)cc2c(=O)[nH]1", "%", -19.7]
]}

query: Consider the compound O=NN(CCCl)C(=O)NCCCl . State its measured inhibition.
result: 5.44

query: Consider the compound Nc1nc2c(ncn2COC(CO)CO)c(=O)[nH]1 . State its measured inhibition.
result: -34.3

query: Consider the compound O=C(O)P(=O)(O)O . State its measured inhibition.
result: -19.7

query: Consider the compound CC(N)C12CC3CC(CC(C3)C1)C2 (configuration not stated) . State its measured inhibition.
result: -4.5

query: Consider the compound Cc1oncc1C(=O)Nc1ccc(C(F)(F)F)cc1 . State its measured inhibition.
result: 16.5

query: Consider the compound Nc1[nH]c(=O)ncc1F . State its measured inhibition.
result: -28.5

query: Consider the compound C[C@H]1COc2c(C3(N)CC3)c(F)cc3c(=O)c(C(=O)O)cn1c23 . State its measured inhibition.
result: -21.1

====

# test.method.notes: stimulators of insulin release from INS-1E, primary screen, cell-based, 5 mM glucose, NPC library (AID 1117329); note: reference of the scale not given here
# condition.label: rat INS-1E insulin secretion, at 10 µM, stronger effect = higher value
readout.label: insulin secretion stimulation (%)
Return type: number; implicit unit %.

Field: example entries. Status: answers known.
{"columns": ["compound", "value"],
 "data": [
  ["CC(C)COCC(CN(Cc1ccccc1)c1ccccc1)N1CCCC1 (configuration not stated)", 4.8],
  ["Cc1ncc([N+](=O)[O-])n1CCO", -1.4],
  ["Nc1cc(-c2ccncc2)c[nH]c1=O", 0.4]
]}

query: Consider the compound C#C[C@]1(O)CC[C@H]2[C@@H]3CCc4cc(O)ccc4[C@H]3CC[C@@]21C . State its measured insulin secretion stimulation.
result: 10.3

query: Consider the compound CCc1nn(CCCN2CCN(c3cccc(Cl)c3)CC2)c(=O)n1CCOc1ccccc1 . State its measured insulin secretion stimulation.
result: -1.1

query: Consider the compound NC(Cc1ccc(Cl)cc1)C(=O)O (configuration not stated) . State its measured insulin secretion stimulation.
result: -1.3

query: Consider the compound NCCS . State its measured insulin secretion stimulation.
result: 2.9

====

# system: 6-phosphogluconate dehydrogenase, decarboxylating (Homo sapiens) (UniProt P52209)
# Sequence (P52209 whole entry, looked up): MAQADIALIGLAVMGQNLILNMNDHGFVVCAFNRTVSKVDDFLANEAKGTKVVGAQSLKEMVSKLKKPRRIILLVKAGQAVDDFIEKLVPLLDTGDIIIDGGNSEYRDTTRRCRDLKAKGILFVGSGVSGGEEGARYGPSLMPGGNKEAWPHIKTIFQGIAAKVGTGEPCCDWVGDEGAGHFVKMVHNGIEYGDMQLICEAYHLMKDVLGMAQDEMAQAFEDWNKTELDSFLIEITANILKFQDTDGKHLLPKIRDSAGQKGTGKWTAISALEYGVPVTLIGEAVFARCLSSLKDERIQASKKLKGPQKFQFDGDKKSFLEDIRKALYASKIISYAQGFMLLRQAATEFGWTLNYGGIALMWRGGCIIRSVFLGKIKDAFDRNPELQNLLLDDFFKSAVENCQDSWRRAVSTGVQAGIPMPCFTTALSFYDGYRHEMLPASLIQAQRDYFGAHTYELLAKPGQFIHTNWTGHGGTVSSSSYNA
# test.method.notes: inhibition of human phosphogluconate dehydrogenase – biochemical, recombinant enzyme, NADPH absorbance, primary screen (AID 1159550)
# condition.label: recombinant 6PGD, NADPH absorbance 341 nm; at 10 µM; stronger effect = higher value
readout.label: inhibition (%)
Return type: number; implicit unit %.

Field: example entries. Status: answers known.
{"columns": ["compound", "system", "unit.label", "value"],
 "data": [
  ["O=C1O[C@H](CO)[C@@H](O)[C@H](O)[C@H]1O", "6-phosphogluconate dehydrogenase, decarboxylating (Homo sapiens) (UniProt P52209)", "%", -9.11],
  ["Cc1cc(-c2ccccc2)nnc1NCCN1CCOCC1", "6-phosphogluconate dehydrogenase, decarboxylating (Homo sapiens) (UniProt P52209)", "%", 3.56],
  ["Oc1c(Br)cc(Br)c2cccnc12", "6-phosphogluconate dehydrogenase, decarboxylating (Homo sapiens) (UniProt P52209)", "%", 4.35],
  ["OCC(O)CN1CCN(c2ccccc2)CC1 (stereo unspecified)", "6-phosphogluconate dehydrogenase, decarboxylating (Homo sapiens) (UniProt P52209)", "%", 8.41],
  ["COc1cc(N)c(Cl)cc1C(=O)NC1CCN(Cc2ccccc2)CC1", "6-phosphogluconate dehydrogenase, decarboxylating (Homo sapiens) (UniProt P52209)", "%", -7.99],
  ["CCN(CCCCOC(=O)c1ccc(OC)c(OC)c1)C(C)Cc1ccc(OC)cc1 (stereo unspecified)", "6-phosphogluconate dehydrogenase, decarboxylating (Homo sapiens) (UniProt P52209)", "%", -12.1],
  ["O=C(NC(Cc1cc(=O)[nH]c2ccccc12)C(=O)O)c1ccc(Cl)cc1 (stereo unspecified)", "6-phosphogluconate dehydrogenase, decarboxylating (Homo sapiens) (UniProt P52209)", "%", 4.66],
  ["CC[C@]12CCCN3CCc4c(n(c5ccccc45)[C@@](O)(C(=O)OC)C1)[C@@H]32", "6-phosphogluconate dehydrogenase, decarboxylating (Homo sapiens) (UniProt P52209)", "%", -2.98],
  ["CN(C)CCc1c[nH]c2ccc(CS(=O)(=O)N3CCCC3)cc12", "6-phosphogluconate dehydrogenase, decarboxylating (Homo sapiens) (UniProt P52209)", "%", -1.67],
  ["C[C@H]1O[C@@H](n2cc(F)c(=O)[nH]c2=O)[C@H](O)[C@@H]1O", "6-phosphogluconate dehydrogenase, decarboxylating (Homo sapiens) (UniProt P52209)", "%", -6.33]
]}

We now examine a further compound.
query: Consider the compound CCOC(=O)[C@H](CCc1ccccc1)N[C@@H](C)C(=O)N1CCC[C@H]1C(=O)O . State its measured inhibition.
result: -2.48

Sourced from PubChem BioAssay
